tested on: plasma enzymes; conditions: Sprague Dawley, rat
attribute measured: P5P formed (µM)
Please give a number only; it is taken to be in µM.

For the compound shown here, Cc1ncc(COP(=O)(N[C@@H](C)C(=O)OC(C)C)Oc2ccc(Cl)c(Cl)c2)c(CO)c1O (stereo partly shown) , give the reported P5P formed.
0.4

Need P5P formed of [2H]C([2H])(OP(=O)(N[C@@H](C)C(=O)OC(C)C)Oc1ccccc1)c1cnc(C)c(O)c1C=O (stereo partly shown) , thanks.
2

What value of measured P5P formed is listed for Cc1ncc(COP(=O)(N[C@@H](C)C(=O)OC(C)C)Oc2ccc(Br)cc2F)c(C=O)c1O (stereo partly shown) ?
2.3

Quick one: P5P formed of Cc1ncc(COP(=O)(N[C@@H](C)C(=O)OC(C)C)Oc2ccc(Br)cc2F)c(CN)c1O (stereo partly shown) ?
2.4

So what's the measured P5P formed for this one? Cc1ncc(COP(=O)(N[C@@H](C)C(=O)OC2CCN(C)CC2)Oc2ccccc2)c(CN)c1O (stereo partly shown) [Compound 14xv]
0.3

Given the compound Cc1ncc(COP(=O)(N[C@@H](C)C(=O)OCC2CCCC2)Oc2ccccc2)c(CO)c1O (stereo partly shown) , what is its reported P5P formed?
0

Consider the compound Cc1ncc(COP(=O)(N[C@@H](C)C(=O)OCc2ccccc2)Oc2ccccc2)c(/C=N/CCc2ccc(C#N)cc2)c1O (stereo partly shown) and give its measured P5P formed.
0.5

###

tested on: plasma enzymes; conditions: Sprague Dawley, rat
// assign Condition met if P5P formed falls strictly below 0.2 µM, else Condition not met (ties count as Condition not met)

I wonder whether COCCOC(=O)[C@H](C)NP(=O)(OCc1cnc(C)c(O)c1C=O)Oc1ccccc1 (some centres unmarked) has P5P formed below 0.2 µM. Can you tell?
Condition not met

I wonder whether CCC(CC)COC(=O)[C@H](C)NP(=O)(OCc1cnc(C)c(O)c1CO)Oc1ccccc1 (some centres unmarked) has P5P formed below 0.2 µM. Can you tell?
Condition met

Is the reported P5P formed for Cc1ncc(COP(=O)(N[C@@H](C)C(=O)OC2CCN(C)CC2)Oc2ccccc2)c(C=O)c1O (some centres unmarked) strictly below 0.2 µM?
Condition not met

Given the entry COC(=O)[C@H](C)NP(=O)(OCc1cnc(C)c(O)c1CO)Oc1ccccc1 (some centres unmarked) [Compound 15vi] , would its reported P5P formed be below 0.2 µM?
Condition met

Please determine if Cc1ncc(COP(=O)(N[C@@H](C)C(=O)Oc2ccc(Cl)cc2)Oc2ccccc2)c(C=O)c1O (some centres unmarked) [Compound 16xL] is below 0.2 µM in terms of P5P formed.
Condition not met

hey, is P5P formed for [2H]C([2H])([2H])C(OC(=O)[C@H](C)NP(=O)(OCc1cnc(C)c(O)c1CN)Oc1ccccc1)C([2H])([2H])[2H] (some centres unmarked) lower than 0.2 µM or not?
Condition not met

Input "Cc1ncc(CO[P@@](=O)(N[C@@H](C)C(=O)OC(C)C)Oc2ccccc2)c(/C=N/C2CCCC2)c1O" ; condition: P5P formed strictly below 0.2 µM. Does it hold?
Condition not met

Criterion: P5P formed strictly below 0.2 µM. Is it met by Cc1ccc(OC(=O)[C@H](C)NP(=O)(OCc2cnc(C)c(O)c2CN)Oc2ccccc2)cc1 (some centres unmarked) ?
Condition not met

Identify whether the compound Cc1ncc(COP(=O)(NCC(=O)OC(C)C)Oc2ccccc2)c(CN)c1O (centres unmarked) [Compound 14ii] records P5P formed below 0.2 µM.
Condition met

Does the reported P5P formed of the following compound sit strictly below 0.2 µM? Cc1ncc(COP(=O)(N[C@@H](C)C(=O)OCC2CCCC2)Oc2ccccc2)c(C=O)c1O (some centres unmarked) [Compound 16x]
Condition not met

# credit: patent US20250034185A1
